target: human melanocortin-4 receptor (human, UniProt P32245 1-332); assay: cell-based or functional assay
Sequence (P32245 whole entry): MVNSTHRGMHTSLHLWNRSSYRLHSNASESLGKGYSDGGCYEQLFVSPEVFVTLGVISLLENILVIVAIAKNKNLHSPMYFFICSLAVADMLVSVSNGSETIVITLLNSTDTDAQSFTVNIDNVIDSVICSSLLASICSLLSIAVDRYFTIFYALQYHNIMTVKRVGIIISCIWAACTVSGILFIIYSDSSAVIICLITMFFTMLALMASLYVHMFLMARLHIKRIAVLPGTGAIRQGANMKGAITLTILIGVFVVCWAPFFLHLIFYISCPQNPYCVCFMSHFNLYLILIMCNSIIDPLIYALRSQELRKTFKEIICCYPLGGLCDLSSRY
Positions of bridges follow the written chain, without caps; N, C: chain ends. Non-standard residues stand in square brackets, D forms with d. dPhe(3,4,5-F3) = N[C@H](Cc1cc(F)c(F)c(F)c1)C(=O)O; dPhe(2-CF3) = N[C@H](Cc1ccccc1C(F)(F)F)C(=O)O; dPhe(4-CN) = N#Cc1ccc(C[C@@H](N)C(=O)O)cc1; dPhe(3-Cl) = N[C@H](Cc1cccc(Cl)c1)C(=O)O; dPhe(2-Cl) = N[C@H](Cc1ccccc1Cl)C(=O)O; Orn = NCCC[C@H](N)C(=O)O
Record form. Attribute: Intrinsic Activity, cAMP, 0.1 ng/mL Doxycycline. Fill in for each entry.
Enter your answer as a number in %; do not include the unit.

// query GET /values?readout=Intrinsic Activity, cAMP, 0.1 ng/mL Doxycycline&item= Ac-RES[dPhe(3-Cl)]RW[Orn]-NH2 (lactam 2-7, also called No. 35) [Ac-Arg-cyclo(Glu-Ser-D-Phe(3-Cl)-Arg-Trp-Orn)-NH2]
// result 6

// query GET /values?readout=Intrinsic Activity, cAMP, 0.1 ng/mL Doxycycline&item= Ac-REQ[dPhe(3,4,5-F3)]RW[Orn]-NH2 (lactam 2-7; SMILES CC(=O)N[C@@H](CCCNC(=N)N)C(=O)N[C@H]1CCC(=O)NCCC[C@@H](C(N)=O)NC(=O)[C@H](Cc2c[nH]c3ccccc23)NC(=O)[C@H](CCCNC(=N)N)NC(=O)[C@@H](Cc2cc(F)c(F)c(F)c2)NC(=O)[C@H](CCC(N)=O)NC1=O) [Ac-Arg-cyclo(Glu-Gln-D-Phe(3,4,5-triF)-Arg-Trp-Orn)-NH2]
// result 49

// query GET /values?readout=Intrinsic Activity, cAMP, 0.1 ng/mL Doxycycline&item= Ac-R[Orn]Q[dPhe(2-Cl)]RWE-NH2 (lactam 2-7) [Ac-Arg-cyclo(Orn-Gln-D-Phe(2-Cl)-Arg-Trp-Glu)-NH2]
// result 83

// query GET /values?readout=Intrinsic Activity, cAMP, 0.1 ng/mL Doxycycline&item= Ac-REP[dPhe(2-Cl)]RW[Orn]-NH2 (lactam 2-7; SMILES CC(=O)N[C@@H](CCCNC(=N)N)C(=O)N[C@H]1CCC(=O)NCCC[C@@H](C(N)=O)NC(=O)[C@H](Cc2c[nH]c3ccccc23)NC(=O)[C@H](CCCNC(=N)N)NC(=O)[C@@H](Cc2ccccc2Cl)NC(=O)[C@@H]2CCCN2C1=O, also called No. 88) [Ac-Arg-cyclo(Glu-Pro-D-Phe(2-Cl)-Arg-Trp-Orn)-NH2]
// result 15

// query GET /values?readout=Intrinsic Activity, cAMP, 0.1 ng/mL Doxycycline&item= Ac-RDN[dPhe(4-CN)]RWK-NH2 (lactam 2-7, also called No. 89) [Ac-Arg-cyclo(Asp-Asn-D-Phe(4-CN)-Arg-Trp-Lys)-NH2]
// result 6

// query GET /values?readout=Intrinsic Activity, cAMP, 0.1 ng/mL Doxycycline&item= Ac-RET[dPhe(2-Cl)]RW[Orn]-NH2 (lactam 2-7; SMILES CC(=O)N[C@@H](CCCNC(=N)N)C(=O)N[C@H]1CCC(=O)NCCC[C@@H](C(N)=O)NC(=O)[C@H](Cc2c[nH]c3ccccc23)NC(=O)[C@H](CCCNC(=N)N)NC(=O)[C@@H](Cc2ccccc2Cl)NC(=O)[C@H]([C@@H](C)O)NC1=O, also called No. 32) [Ac-Arg-cyclo(Glu-Thr-D-Phe(2-Cl)-Arg-Trp-Orn)-NH2]
// result 34

// query GET /values?readout=Intrinsic Activity, cAMP, 0.1 ng/mL Doxycycline&item= Ac-R[Orn]Q[dPhe(2-CF3)]RWE-NH2 (lactam 2-7, also called No. 115) [Ac-Arg-cyclo(Orn-Gln-D-Phe(2-CF3)-Arg-Trp-Glu)-NH2]
// result 54

// query GET /values?readout=Intrinsic Activity, cAMP, 0.1 ng/mL Doxycycline&item= Ac-RES[dPhe(4-CN)]RW[Orn]-NH2 (lactam 2-7; SMILES CC(=O)N[C@@H](CCCNC(=N)N)C(=O)N[C@H]1CCC(=O)NCCC[C@@H](C(N)=O)NC(=O)[C@H](Cc2c[nH]c3ccccc23)NC(=O)[C@H](CCCNC(=N)N)NC(=O)[C@@H](Cc2ccc(C#N)cc2)NC(=O)[C@H](CO)NC1=O, also called No. 45) [Ac-Arg-cyclo(Glu-Ser-D-Phe(4-CN)-Arg-Trp-Orn)-NH2]
// result 12
